Reported self-cleavage values follow for various variants
B1: Hairpin Ribozyme (parent)
chain: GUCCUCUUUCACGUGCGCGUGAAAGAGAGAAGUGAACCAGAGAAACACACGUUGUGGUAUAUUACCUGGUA

variants of: B1; experiment: self-cleavage, relative activity (ratio to wild type); higher = more cleavage; co-transcriptional

var: A47G U67G
self-cleavage: 0.0884

var: A44U U55G
self-cleavage: 0.0792

var: C50A U70G
self-cleavage: 0.252

var: U9C A43G
self-cleavage: 0.0922

var: G19A A39G
self-cleavage: 0.274

var: A47U U58A
self-cleavage: 0.106

var: G27U A59U
self-cleavage: 0.146

var: U70A A71C
self-cleavage: 1.21

var: A11C A64U
self-cleavage: 0.237

var: A31C U52G
self-cleavage: 0.0727

var: C37U C50G
self-cleavage: 0.226

var: A61G
self-cleavage: 0.183

var: A24U G51A
self-cleavage: 0.751

var: G25C C46G
self-cleavage: 0.115

var: A24G G68A
self-cleavage: 0.172

var: G17A U53G
self-cleavage: 0.932

var: A39G A49G
self-cleavage: 0.116

var: C6G G34C
self-cleavage: 1.03

var: C16U C66U
self-cleavage: 0.397

var: G1C A43G
self-cleavage: 0.113

var: G17C U67C
self-cleavage: 0.197

var: A64G G68A
self-cleavage: 0.226
